The measurements presented in this section are drawn from patent US20040037843A1.

target: HLA-A*0201 (Homo sapiens, UniProt P04439, D140Y/D185E/D98H/E176V/E277Q/G131W/G231S/I119V/I121R/I166T/I218V/L300P/L318F/N151K/N90K/P208A/P217A/Q86G/Q94H/R138H/R169H/T345S); test: HLA class I binding assay, purified HLA, inhibition of 125I-labelled probe peptide; settings: A*[…], A2 supermotif cross-reactive binding data
observed.property: IC50 (µM)
Answers are plain numbers, in µM.

# example entries with known answers
CC(C)C[C@H](NC(=O)[C@H](Cc1c[nH]cn1)NC(=O)[C@H](CC(C)C)NC(=O)[C@H](CO)NC(=O)[C@@H](NC(=O)[C@H](CS)NC(=O)[C@H](CCC(N)=O)NC(=O)[C@H](CC(C)C)NC(=O)[C@@H](N)CO)C(C)C)C(=O)O [Peptide 60.0191]: 0.5
CSCC[C@H](NC(=O)[C@H](CC(=O)O)NC(=O)[C@H](CC(N)=O)NC(=O)[C@H](CO)NC(=O)[C@H](CC(C)C)NC(=O)[C@H](CC(C)C)NC(=O)[C@@H](N)Cc1c[nH]cn1)C(=O)N[C@@H](CS)C(=O)N[C@H](C(=O)O)C(C)C [Peptide 1418.20]: 0.119
CC(C)C[C@H](NC(=O)[C@H](CC(C)C)NC(=O)[C@H](Cc1ccccc1)NC(=O)[C@H](CC(C)C)NC(=O)[C@@H](N)Cc1ccccc1)C(=O)N[C@@H](Cc1ccccc1)C(=O)N[C@@H](Cc1ccccc1)C(=O)N[C@@H](Cc1c[nH]c2ccccc12)C(=O)N[C@H](C(=O)O)C(C)C [Peptide 60.0203]: 0.042

API: the following record is the query input.
compound CSCC[C@H](NC(=O)[C@H](Cc1ccccc1)NC(=O)[C@H](CCC(=O)O)NC(=O)[C@@H](NC(=O)[C@@H](NC(=O)[C@@H](N)CCCCN)C(C)C)[C@@H](C)O)C(=O)N[C@@H](CC(C)C)C(=O)N[C@@H](CS)C(=O)N[C@@H](C)C(=O)NCC(=O)N[C@H](C(=O)O)C(C)C [Peptide 1418.71] , IC50 observed: 0.056
